- assay.method.text: Drug level in rat cardiac plasma at 5 mg/kg, po administered with methocel suspension by electrospray mass spectrometry
- Type: ADME, organism-based
- Set-up: dose 5 mg/kg, route oral
measure.name: AUC (µM·h)
Report only the number, with the unit µM·h understood.

Incoming: // query AUC value for entry O=S(=O)(c1ccccc1)c1ccc(/C=C/c2ccc(F)cc2F)cc1
Outgoing: 0.09

----------
- assay.method.text: Drug level in rat brain at 10 mg/kg, po after 0.5 hrs
- Assay type: ADME, organism-based
- Parameters: dose 10 mg/kg, route oral
- condition.info: read-out: Drug uptake
Below is a list of entries, each paired with its recorded concentration at 0.5 h value.
Give just the numeric value; nM need not be written.

Sample records with concentration at 0.5 h:
molecule_smiles=NC(=O)c1ccc(S(=O)(=O)c2ccc(/C=C/c3ccc(F)cc3F)cc2)cc1 measure_name="concentration at 0.5 h" units_of_measure=nM obs_value=620
molecule_smiles=NC(=O)c1cccc(S(=O)(=O)c2ccc(/C=C/c3ccc(F)cc3F)cc2)c1 measure_name="concentration at 0.5 h" units_of_measure=nM obs_value=40

Now consider the entry below.
Incoming: # query: concentration at 0.5 h of entry NC(=O)c1ccccc1S(=O)(=O)c1ccc(/C=C/c2ccc(F)cc2F)cc1
Outgoing: 5770

----------
This section presents compounds with their documented Activity values.
- Test system: Rattus norvegicus
- assay.method.text: Ex vivo receptor occupancy of 5HT2A receptor in rat brain at 10 mg/kg, po after 0.5 hrs
- Format: functional
Numeric answer only, unit % assumed.

compound=NC(=O)c1cccc(S(=O)(=O)c2ccc(/C=C/c3ccc(F)cc3F)cc2)c1 target_desc="Rattus norvegicus" measure_name=Activity units_of_measure=% obs_value=50
compound=O=S(=O)(c1ccc(F)cc1)C1(F)CCN(CCc2ccc(F)cc2F)CC1 target_desc="Rattus norvegicus" measure_name=Activity units_of_measure=% obs_value=98
compound=O=C(c1ccccc1F)N1CCC(CCc2ccc(F)cc2F)CC1 target_desc="Rattus norvegicus" measure_name=Activity units_of_measure=% obs_value=40
compound="CC(O)c1ccccc1S(=O)(=O)c1ccc(/C=C/c2ccc(F)cc2)cc1 (racemic)" target_desc="Rattus norvegicus" measure_name=Activity units_of_measure=% obs_value=85

Kindly consider the entry below.
Incoming: Need Activity, item O=S(=O)(c1ccccc1)c1ccc(/C=C/c2ccc(F)cc2F)cc1
Outgoing: 40

----------
- assay.method.text: Plasma clearance in rhesus monkey at 0.1 mg/kg, iv and 1 mg/kg, po
- Assay type: ADME, organism-based, Macaca mulatta
measure.name: clearance (mL/min/kg)
Reply with just the number (in mL/min/kg).

molecule_smiles=NC(=O)c1ccccc1S(=O)(=O)c1ccc(/C=C/c2ccc(F)cc2F)cc1 units_of_measure=mL/min/kg obs_value=0.13

Incoming: What value of clearance has been reported for the following molecule? C[C@H](O)c1ccccc1S(=O)(=O)c1ccc(/C=C/c2ccc(F)cc2)cc1
Outgoing: 32

----------
- target.desc: Voltage-gated inwardly rectifying potassium channel KCNH2 (Homo sapiens, UniProt Q12809)
- Sequence (Q12809 whole entry): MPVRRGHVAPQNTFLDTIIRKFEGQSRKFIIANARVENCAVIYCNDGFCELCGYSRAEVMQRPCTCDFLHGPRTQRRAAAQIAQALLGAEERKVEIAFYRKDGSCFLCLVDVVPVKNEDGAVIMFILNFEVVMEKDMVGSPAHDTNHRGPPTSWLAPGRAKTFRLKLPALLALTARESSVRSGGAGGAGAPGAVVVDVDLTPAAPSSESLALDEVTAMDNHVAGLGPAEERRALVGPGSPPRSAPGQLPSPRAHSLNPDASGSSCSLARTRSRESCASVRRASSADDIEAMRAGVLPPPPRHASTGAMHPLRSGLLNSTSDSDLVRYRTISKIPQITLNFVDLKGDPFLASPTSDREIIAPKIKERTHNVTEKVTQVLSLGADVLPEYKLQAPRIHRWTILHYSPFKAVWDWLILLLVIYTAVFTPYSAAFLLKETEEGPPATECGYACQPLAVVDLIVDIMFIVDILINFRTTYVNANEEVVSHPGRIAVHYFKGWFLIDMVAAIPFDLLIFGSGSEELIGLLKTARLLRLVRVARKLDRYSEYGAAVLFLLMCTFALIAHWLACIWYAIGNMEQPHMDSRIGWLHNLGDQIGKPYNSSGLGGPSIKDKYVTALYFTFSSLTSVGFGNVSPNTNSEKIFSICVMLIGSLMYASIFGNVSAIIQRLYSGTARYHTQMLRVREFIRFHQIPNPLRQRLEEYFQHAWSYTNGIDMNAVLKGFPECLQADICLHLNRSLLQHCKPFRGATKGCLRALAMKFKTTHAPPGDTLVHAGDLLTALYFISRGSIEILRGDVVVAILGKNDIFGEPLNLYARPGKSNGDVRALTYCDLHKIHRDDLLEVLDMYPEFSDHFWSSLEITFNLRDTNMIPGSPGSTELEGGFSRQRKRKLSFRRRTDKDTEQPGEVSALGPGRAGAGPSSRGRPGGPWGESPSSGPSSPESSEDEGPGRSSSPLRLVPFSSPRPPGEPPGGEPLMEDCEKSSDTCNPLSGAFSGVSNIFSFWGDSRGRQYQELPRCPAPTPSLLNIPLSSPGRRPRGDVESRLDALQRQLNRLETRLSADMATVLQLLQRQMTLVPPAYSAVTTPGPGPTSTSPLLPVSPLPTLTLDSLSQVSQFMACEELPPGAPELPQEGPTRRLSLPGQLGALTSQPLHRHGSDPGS
measure.name: pKi
Please treat pKi as minus the base-10 logarithm of the molar concentration.

Incoming: Please provide the recorded pKi for O=S(=O)(c1ccccc1)c1ccc(/C=C/c2ccc(F)cc2F)cc1 , tested on Voltage-gated inwardly rectifying potassium channel KCNH2 (Homo sapiens, UniProt Q12809).
Outgoing: 5.36

Incoming: // lookup pKi | system=Voltage-gated inwardly rectifying potassium channel KCNH2 (Homo sapiens, UniProt Q12809) | key= NC(=O)c1ccc(S(=O)(=O)c2ccc(/C=C/c3ccc(F)cc3F)cc2)cc1
Outgoing: 5.10
